Examples of compounds with documented Cmax follow.
Assay: Cmax in Wistar rat at 5 mg/kg, iv by LC/MS/MS analysis
Assay type: ADME, organism-based
Set-up: dose 5 mg/kg, route intravenous
Settings: in vivo

[
  {
    "structure": "C[C@H](NC(=O)CCCc1ccc2cccnc2n1)c1ccc(-c2cccc(Cl)c2)cc1",
    "Cmax [µM]": 19
  },
  {
    "structure": "O=C(CCCc1ccc2cccnc2n1)NCc1ccc(-c2cccc(Cl)c2)cc1",
    "Cmax [µM]": 82.7
  },
  {
    "structure": "O=C(CCCc1ccc2cccnc2n1)NCc1cc(-c2ccc(F)c(C(F)(F)F)c2)no1",
    "Cmax [µM]": 40
  },
  {
    "structure": "FC(F)(F)c1cc(-c2nnc(CCCCc3ccc4cccnc4n3)o2)ccc1Cl",
    "Cmax [µM]": 92
  },
  {
    "structure": "Cc1cccc(-c2ccc(CNC(=O)CCCc3ccc4cccnc4n3)cc2)c1",
    "Cmax [µM]": 19
  },
  {
    "structure": "Clc1cccc(-c2ccc(-c3nnc(CCCc4ccc5cccnc5n4)o3)cc2)c1",
    "Cmax [µM]": 9.3
  },
  {
    "structure": "FC(F)(F)Oc1ccc(-c2nnc(CCCCc3ccc4cccnc4n3)o2)cc1Cl",
    "Cmax [µM]": 56
  }
]

====

Assay: AUC (0 to 24 hrs) in Wistar rat plasma at 100 mg/kg, ip
Assay type: ADME, organism-based
Design: time < 24 hr, dose 100 mg/kg, route intraperitoneal
reported endpoint: AUC(0-t) at 24 h (µM·h)

[
  {
    "structure": "C[C@H](NC(=O)Cc1ccc(-c2ccc3cccnc3n2)cc1)c1ccc(-c2ccc(F)c(C(F)(F)F)c2)cc1",
    "reported endpoint": "AUC(0-t) at 24 h",
    "unit tag": "µM·h",
    "value": 4.3
  }
]

====

Assay: Cmax in Wistar rat at 50 mg/kg, ip by LC/MS/MS analysis
Assay type: ADME, organism-based
Set-up: dose 50 mg/kg, route intraperitoneal
Conditions: in vivo
The reader will find reported Cmax values listed item by item below.

[
  {
    "structure": "FC(F)(F)c1cc(-c2nnc(CCCCc3ccc4cccnc4n3)o2)ccc1Cl",
    "unit tag": "µM",
    "Cmax": 21
  },
  {
    "structure": "Cc1cccc(-c2ccc(CNC(=O)CCCc3ccc4cccnc4n3)cc2)c1",
    "unit tag": "µM",
    "Cmax": 3.7
  },
  {
    "structure": "O=C(CCCc1ccc2cccnc2n1)NCc1cc(-c2ccc(F)c(C(F)(F)F)c2)no1",
    "unit tag": "µM",
    "Cmax": 22
  },
  {
    "structure": "O=C(CCCc1ccc2cccnc2n1)NCc1ccc(-c2cccc(Cl)c2)cc1",
    "unit tag": "µM",
    "Cmax": 17.8
  }
]

====

Collected Tmax values appear next to each entry.
Experiment: Tmax in Wistar rat at 50 mg/kg, ip
Assay type: ADME, organism-based
Parameters: dose 50 mg/kg, route intraperitoneal
Conditions: in vivo
reported endpoint: Tmax (h)

[
  {
    "structure": "Cc1cccc(-c2ccc(CNC(=O)CCCc3ccc4cccnc4n3)cc2)c1",
    "value": 1.8
  },
  {
    "structure": "O=C(CCCc1ccc2cccnc2n1)NCc1ccc(-c2cccc(Cl)c2)cc1",
    "value": 3.3
  },
  {
    "structure": "FC(F)(F)c1cc(-c2nnc(CCCCc3ccc4cccnc4n3)o2)ccc1Cl",
    "value": 2.7
  },
  {
    "structure": "O=C(CCCc1ccc2cccnc2n1)NCc1cc(-c2ccc(F)c(C(F)(F)F)c2)no1",
    "value": 2
  }
]
